Measured protein stability index of individual entries
B1: CD207 (parent)
chain: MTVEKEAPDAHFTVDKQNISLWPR

- Variants of: B1
- Measurement notes: protein stability index of a GFP-peptide fusion (GPS, HEK-293T) (PSI 1-6); higher = more stable;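 further: lentivirally expressed fusions sorted by FACS into six bins by GFP to DsRed ratio, PSI derived from sequencing read proportions per bin multiplied by bin number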
- Conditions: c terminus: a fixed tail appended
Quick one: just the number, no unit, thanks!

INSERT INTO measurements (mutation_name, reported_result) VALUES
  ('A7P', 3.54);

Here is another variant to look at.
Would you kindly share the measured protein stability index for Q17W ?
1.56
